Here the recorded EC50 is given for each entry.
target: UniProtKB P35557; experiment: Glucokinase activation assay (NADPH absorbance at 340 nm); settings: glucokinase (ProteinOne Inc.), 5 mM D(+)-glucose, 24° C., 90 minutes
Respond numerically; units are nM and should not be typed.

Look over these answered cases.
COC[C@H](C)Oc1cc(CCc2cccc(NC(=O)CC(=O)O)c2)cc(C(=O)Nc2nccs2)c1 [Example 147]; 222
CC(C)COc1cc(/C=C/c2ccccc2F)cc(C(=O)Nc2nccs2)c1 [Example 70]; 102
COC[C@H](C)Oc1cc(/C=C/c2cc(F)ccc2F)cc(C(=O)Nc2ccc(C(=O)O)cn2)c1 [Example 80]; 134
COC[C@H](C)Oc1cc(/C=C/c2ccccc2OC)cc(C(=O)Nc2ccc(C(=O)O)cn2)c1 [Example 73]; 82.8
COC[C@H](C)Oc1cc(/C=C/c2ccc(F)cc2)cc(C(=O)Nc2ccc(C(=O)OC)cn2)c1 [Example 65]; 292

Fill in the recorded EC50 for this molecule, with UniProtKB P35557 as test system: CC(C)Oc1cc(/C=C/c2ccccn2)cc(C(=O)Nc2ccc(C(=O)O)cn2)c1 [Comparative Example 1, reference compound]
2450

Request body: readout EC50, system UniProtKB P35557, query COC[C@H](C)Oc1cc(/C=C/c2cc(OC)cc(OC)c2)cc(C(=O)Nc2ccn(C)n2)c1 (stereo in doubt) [Example 40] . Return the value.
174

---

biological target: Glucokinase (Homo sapiens, UniProt P35557); assay: Glucokinase activation assay (NADPH absorbance at 340 nm); details: glucokinase (ProteinOne Inc.), 5 mM D(+)-glucose, 24° C., 90 minutes
Sequence (P35557 whole entry, species assumed): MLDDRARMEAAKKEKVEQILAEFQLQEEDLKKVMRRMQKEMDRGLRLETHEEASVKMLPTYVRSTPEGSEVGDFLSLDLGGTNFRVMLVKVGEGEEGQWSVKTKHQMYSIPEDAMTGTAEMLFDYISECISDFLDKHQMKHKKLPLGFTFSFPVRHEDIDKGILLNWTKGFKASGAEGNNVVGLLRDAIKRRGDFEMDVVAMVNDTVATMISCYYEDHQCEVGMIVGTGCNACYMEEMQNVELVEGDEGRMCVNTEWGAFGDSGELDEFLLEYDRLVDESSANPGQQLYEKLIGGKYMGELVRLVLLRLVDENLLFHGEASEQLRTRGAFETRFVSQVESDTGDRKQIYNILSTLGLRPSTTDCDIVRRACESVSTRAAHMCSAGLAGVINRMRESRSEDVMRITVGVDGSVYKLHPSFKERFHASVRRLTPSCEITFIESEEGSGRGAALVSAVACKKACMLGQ
Where a name gives a salt, the structure may show the parent alone.
ENDPOINT LABEL: EC50 (nM)
# output: bare number, implied unit nM

COC[C@H](C)Oc1cc(CCc2ccccc2N)cc(C(=O)Nc2nccs2)c1 [Example 110, hydrochloride]; 68.2
CC(C)COc1cc(/C=C/c2cc(F)ccc2F)cc(C(=O)Nc2nccs2)c1; 84.8
COC[C@H](C)Oc1cc(CCc2cccc(NC(=O)c3ccncc3)c2)cc(C(=O)Nc2nccs2)c1; 200
COc1ccc(/C=C/c2cc(OCC(C)C)cc(C(=O)Nc3nccs3)c2)cc1OC; 222
COC[C@H](C)Oc1cc(/C=C/c2ccccc2[N+](=O)[O-])cc(C(=O)Nc2nccs2)c1; 12.7

I have this compound here, COC[C@H](C)Oc1cc(/C=C/c2ccccc2[N+](=O)[O-])cc(C(=O)Nc2ccc(C(=O)O)cn2)c1 , and I need its recorded EC50.
296

Which measured EC50 value corresponds to COC[C@H](C)Oc1cc(CCc2ccc(N)cc2)cc(C(=O)Nc2nccs2)c1 [Example 112, hydrochloride] ?
126

Need EC50 of COC[C@H](C)Oc1cc(/C=C/c2ccccc2F)cc(C(=O)Nc2nccs2)c1 (stereo in doubt) , thanks.
38.5

---

biological target: Glucokinase (Homo sapiens, UniProt P35557); test: Glucokinase activation assay (NADPH absorbance at 340 nm); details: glucokinase (ProteinOne Inc.), 5 mM D(+)-glucose, 24° C., 90 minutes
ENDPOINT LABEL: pEC50
Keep it numeric: pEC50 is minus log10 of the concentration in mol/L.

Solved cases (5 shown):
CCOC(=O)Nc1cccc(CCc2cc(O[C@@H](C)COC)cc(C(=O)Nc3nccs3)c2)c1; 6.69
COC[C@H](C)Oc1cc(/C=C/c2ccccc2OC)cc(C(=O)Nc2ccc(C(=O)OC)cn2)c1; 6.56
COC[C@H](C)Oc1cc(/C=C/c2ccc(F)cc2)cc(C(=O)Nc2ccc(C(=O)O)cn2)c1; 6.92
COC[C@H](C)Oc1cc(/C=C/c2ccccc2[N+](=O)[O-])cc(C(=O)Nc2ccc(C(=O)OC)cn2)c1; 6.97
COC[C@H](C)Oc1cc(/C=C/c2ccccc2F)cc(C(=O)Nc2ccc(C(=O)O)cn2)c1; 7.25

Value wanted: pEC50 (Glucokinase (Homo sapiens, UniProt P35557)) of entry COC[C@H](C)Oc1cc(/C=C/c2cccc(F)c2F)cc(C(=O)Nc2ccc(C(=O)O)cn2)c1
6.91

Form: Entry = CC(C)COc1cc(/C=C/c2ccc(F)cc2)cc(C(=O)Nc2nccs2)c1 | System = Glucokinase (Homo sapiens, UniProt P35557) | pEC50 = ____
6.76

Entry COC[C@H](C)Oc1cc(CCc2ccccc2OC)cc(C(=O)Nc2ccn(C)n2)c1 , system Glucokinase (Homo sapiens, UniProt P35557): what pEC50 was measured?
6.87

Test system Glucokinase (Homo sapiens, UniProt P35557); read-out pEC50; what value for COC[C@H](C)Oc1cc(/C=C/c2c(F)cccc2F)cc(C(=O)Nc2ccn(C)n2)c1 (stereo in doubt) ?
6.79
